Where do these numbers come from? They come from the DeepSol protein solubility set.

# experiment_description: soluble on expression in E. coli; label from the status in PepcDB or PDB records
quantity_measured: soluble on expression in E. coli

primary_sequence=MGSDKIHHHHHHMTTRQPKTEADVLAETANLILDKYFHNQKNICTYDKIELARMLGLAEDNKKSDYALFHFIKALRYVVLGNFNEAINSYEATLRIPNSHAGILSNYATTLIILGELEQAKEMLIKCLNETDDGVSNLEYFANIIELYLLSTLDETLLQHAGNMKDSTLDKYSNILKLKTDINKIDISIQDYQEFTGVLIKFIFDKTRQIYQPRFSIDNGLDRQLNIEAFLNINPEEASYLNTEFRNQYLDYIFDNERHDLLGKFVVFFRQNKNREDGTEKPKAFYLGTNRELEA result="not soluble"
primary_sequence=MGHHHHHHSHLTTKEDVFDAIVTLKVRGAPAIGITAAFGLALAAKDIETDNVTEFRRRLEDIKQYLNSSRPTAINLSWALERLSHSVENAISVNEAKTNLVHEAIQIQVEDEETCRLIGQNALQLFKKGDRIMTICNAGSIATSRYGTALAPFYLAKQKDLGLHIYACETRPVLQGSRLTAWELMQGGIDVTLITDSMAAHTMKEKQISAVIVGADRIAKNGDTANKIGTYGLAILANAFDIPFFVAAPLSTFDTKVKCGADIPIEERDPEEVRQISGVRTAPSNVPVFNPAFDITPHDLISGIITEKGIMTGNY result="not soluble"
